Tested on: human acute lymphocytic leukemia E6.1 Jurkat cells
Experiment: Growth inhibition test (MTS) on E6.1 Jurkat cells
Format: cell-based
Settings: 72 hours, read-out: Jurkat ED50
Under this convention, Fulfilled denotes IC50 strictly below 7 µM and Not fulfilled denotes IC50 at or above 7 µM.

compound	target.or.test.system	discrete.label
Brc1c(Br)c(Br)c2c(Br)n[nH]c2c1Br [Compound K64, 3,4,5,6,7-pentabromo-1H-indazole, reference compound]	human acute lymphocytic leukemia E6.1 Jurkat cells	Not fulfilled
OC1CCC(Nc2nc3c(Br)c(Br)c(Br)c(Br)c3[nH]2)CC1 (stereo not shown)	human acute lymphocytic leukemia E6.1 Jurkat cells	Not fulfilled
CN(C)CCN1CCC(CNc2nc3c(Br)c(Br)c(Br)c(Br)c3[nH]2)C1 (stereo not shown)	human acute lymphocytic leukemia E6.1 Jurkat cells	Fulfilled
CN(C)CCN(Cc1ccccc1)c1nc2c(Br)c(Br)c(Br)c(Br)c2[nH]1	human acute lymphocytic leukemia E6.1 Jurkat cells	Not fulfilled
NC1CCC(Nc2nc3c(Br)c(Br)c(Br)c(Br)c3[nH]2)CC1 (stereo not shown)	human acute lymphocytic leukemia E6.1 Jurkat cells	Fulfilled
CN(C)CC(CNc1nc2c(Br)c(Br)c(Br)c(Br)c2[nH]1)C(O)c1ccccc1 (stereo not shown)	human acute lymphocytic leukemia E6.1 Jurkat cells	Fulfilled
N[C@H]1CCCC[C@@H]1Nc1nc2c(Br)c(Br)c(Br)c(Br)c2[nH]1 [Compound 304SS]	human acute lymphocytic leukemia E6.1 Jurkat cells	Fulfilled
COc1ccc(Nc2nc3c(Br)c(Br)c(Br)c(Br)c3[nH]2)cc1OC	human acute lymphocytic leukemia E6.1 Jurkat cells	Not fulfilled
Brc1c(Br)c(Br)c2[nH]c(Nc3ccccn3)nc2c1Br	human acute lymphocytic leukemia E6.1 Jurkat cells	Fulfilled
Brc1c(Br)c(Br)c2[nH]nnc2c1Br [TBB, 4,5,6,7-tetrabromo-1Hbenzotriazole, reference compound]	human acute lymphocytic leukemia E6.1 Jurkat cells	Not fulfilled
Brc1c(Br)c(Br)c2[nH]c(NC3CCCCCCC3)nc2c1Br	human acute lymphocytic leukemia E6.1 Jurkat cells	Fulfilled
Oc1ccc(CCNc2nc3c(Br)c(Br)c(Br)c(Br)c3[nH]2)cc1	human acute lymphocytic leukemia E6.1 Jurkat cells	Fulfilled
Brc1c(Br)c(Br)c2[nH]c(N3CCOCC3)nc2c1Br	human acute lymphocytic leukemia E6.1 Jurkat cells	Fulfilled
Brc1c(Br)c(Br)c2[nH]c(NCCCN3CCOCC3)nc2c1Br	human acute lymphocytic leukemia E6.1 Jurkat cells	Not fulfilled
Brc1c(Br)c(Br)c2[nH]cnc2c1Br [TBI, 4,5,6,7-tetrabromo-1H-benzimidazole, reference compound]	human acute lymphocytic leukemia E6.1 Jurkat cells	Not fulfilled
CN1CCCN(c2nc3c(Br)c(Br)c(Br)c(Br)c3[nH]2)CC1	human acute lymphocytic leukemia E6.1 Jurkat cells	Fulfilled
CCN1CCCC1CNc1nc2c(Br)c(Br)c(Br)c(Br)c2[nH]1 (stereo not shown) [Compound 265a]	human acute lymphocytic leukemia E6.1 Jurkat cells	Fulfilled
Brc1cccc(Nc2nc3c(Br)c(Br)c(Br)c(Br)c3[nH]2)c1	human acute lymphocytic leukemia E6.1 Jurkat cells	Fulfilled
NCCCNc1nc2c(Br)c(Br)c(Br)c(Br)c2[nH]1	human acute lymphocytic leukemia E6.1 Jurkat cells	Fulfilled
CN(C)c1nc2c(Br)c(Br)c(Br)c(Br)c2[nH]1 [DMAT, reference compound]	human acute lymphocytic leukemia E6.1 Jurkat cells	Not fulfilled
CN(C)c1nc2c(Br)c(Br)c(Br)c(Br)c2n1CC(=O)O [Compound K66, reference compound]	human acute lymphocytic leukemia E6.1 Jurkat cells	Not fulfilled
Brc1c(Br)c(Br)c2[nH]c(NCCN3CCN(c4ncccn4)CC3)nc2c1Br	human acute lymphocytic leukemia E6.1 Jurkat cells	Not fulfilled
Brc1c(Br)c(Br)c2[nH]c(N3CCCNCC3)nc2c1Br	human acute lymphocytic leukemia E6.1 Jurkat cells	Fulfilled
N[C@@H]1CCCC[C@H]1Nc1nc2c(Br)c(Br)c(Br)c(Br)c2[nH]1 [Compound 304RR]	human acute lymphocytic leukemia E6.1 Jurkat cells	Fulfilled
Fc1ccc(CNc2nc3c(Br)c(Br)c(Br)c(Br)c3[nH]2)cc1F	human acute lymphocytic leukemia E6.1 Jurkat cells	Not fulfilled
Brc1c(Br)c(Br)c2[nH]c(NCCCN3CCCC3)nc2c1Br	human acute lymphocytic leukemia E6.1 Jurkat cells	Fulfilled
CN1CCC(N(C)CC(Nc2nc3c(Br)c(Br)c(Br)c(Br)c3[nH]2)c2ccccc2)CC1 (stereo not shown)	human acute lymphocytic leukemia E6.1 Jurkat cells	Fulfilled
CN(C)CCCN1CCN(c2nc3c(Br)c(Br)c(Br)c(Br)c3[nH]2)CC1	human acute lymphocytic leukemia E6.1 Jurkat cells	Not fulfilled
Brc1c(Br)c(Br)c2[nH]c(N3CCN(CCN4CCCCC4)CC3)nc2c1Br	human acute lymphocytic leukemia E6.1 Jurkat cells	Fulfilled

====

System: human myelomonocytic, biphenotypic leukemia MV4-11 cells
Assay: Growth inhibition test (MTS) on MV4-11 cells
Assay type: cell-based
Conditions: Homo sapiens, MV4-11, 72 hours, read-out: MV-4-11 ED50
pIC50: −log10 of the molar value.

sample.smiles	target.or.test.system	pIC50
Brc1c(Br)c(Br)c2[nH]c(N3CCN(CCN4CCCCC4)CC3)nc2c1Br	human myelomonocytic, biphenotypic leukemia MV4-11 cells	5.28
Brc1c(Br)c(Br)c2[nH]c(NCCCN3CCOCC3)nc2c1Br	human myelomonocytic, biphenotypic leukemia MV4-11 cells	5.29
CCn1c(N2CCN(CCCN3CCOCC3)CC2)nc2c(Br)c(Br)c(Br)c(Br)c21	human myelomonocytic, biphenotypic leukemia MV4-11 cells	6.22

====

Tested on: human myelomonocytic, biphenotypic leukemia MV4-11 cells
Assay: Growth inhibition test (MTS) on MV4-11 cells
Assay type: cell-based
Conditions: Homo sapiens, MV4-11, 72 hours, read-out: MV-4-11 ED50
pIC50: −log10 of the molar value.
Each entry below carries its recorded pIC50.

compound	target.or.test.system	pIC50
NCc1cccc(CNc2nc3c(Br)c(Br)c(Br)c(Br)c3[nH]2)c1 [Compound 354]	human myelomonocytic, biphenotypic leukemia MV4-11 cells	5.35
Nc1ccccc1Nc1nc2c(Br)c(Br)c(Br)c(Br)c2[nH]1 [Compound 332]	human myelomonocytic, biphenotypic leukemia MV4-11 cells	5.49
CN(C)C1CCCN(c2nc3c(Br)c(Br)c(Br)c(Br)c3[nH]2)C1 (stereo not drawn) [Compound 378]	human myelomonocytic, biphenotypic leukemia MV4-11 cells	5.21
Fc1ccc(CNc2nc3c(Br)c(Br)c(Br)c(Br)c3[nH]2)cc1F [Compound 296]	human myelomonocytic, biphenotypic leukemia MV4-11 cells	5.38
CCOC(=O)N1CCN(c2nc3c(Br)c(Br)c(Br)c(Br)c3n2C(=O)OCC)CC1 [Compound 377]	human myelomonocytic, biphenotypic leukemia MV4-11 cells	5.23
Cc1nc2ccccn2c1CN1CCN(c2nc3c(Br)c(Br)c(Br)c(Br)c3[nH]2)CC1 [Compound 414]	human myelomonocytic, biphenotypic leukemia MV4-11 cells	5.52

====

Tested on: human prostate adenocarcinoma PC3 cells
Test: Growth inhibition test (MTS) on PC3 cells
Format: cell-based
Details: Homo sapiens, PC-3, 72 hours, read-out: PC-3 ED50
Description: Two thousand cells of human prostate adenocarcinoma PC3 were inoculated into each well of a 96-well microplate (manufactured by Corning Corp.), and using F12K (Ham's F12:[…] 1:1) medium (culture medium) containing 10% fetal calf serum (FCS). […]
Under this convention, class 1 denotes IC50 strictly below 6 µM and class 0 denotes IC50 at or above 6 µM.

molecule	discrete.label
CCOC(=O)N1CCN(c2nc3c(Br)c(Br)c(Br)c(Br)c3[nH]2)CC1 [Compound 376]	class 0
CN(C)CCN1CCC(CNc2nc3c(Br)c(Br)c(Br)c(Br)c3[nH]2)C1 (centres unmarked) [Compound 166]	class 1
OCCCN1CCN(c2nc3c(Br)c(Br)c(Br)c(Br)c3[nH]2)CC1 [Compound 383]	class 0
NCCCCNc1nc2c(Br)c(Br)c(Br)c(Br)c2[nH]1 [Compound 61]	class 0
CN1CCCN(c2nc3c(Br)c(Br)c(Br)c(Br)c3[nH]2)CC1 [Compound 256]	class 1
Brc1c(Br)c(Br)c2[nH]nnc2c1Br [TBB, 4,5,6,7-tetrabromo-1Hbenzotriazole, reference compound]	class 0
C[C@@H]1CN(c2nc3c(Br)c(Br)c(Br)c(Br)c3[nH]2)[C@@H](C)CN1 [Compound 364]	class 1
Brc1c(Br)c(Br)c2[nH]c(N3CCCNCC3)nc2c1Br [Compound 260]	class 1

====

pIC50, PIM-1 (Homo sapiens (Human)): measured values
pIC50: −log10 of the molar value.

compound	pIC50
CCN1CCCC1CNc1nc2c(Br)c(Br)c(Br)c(Br)c2[nH]1 (centres unmarked) [Compound 265a]	7.17
NCc1ccccc1CNc1nc2c(Br)c(Br)c(Br)c(Br)c2[nH]1	7.16
Brc1c(Br)c(Br)c2[nH]c(NCCN3CCN(c4ncccn4)CC3)nc2c1Br	6.96
CN(C)C1CCCN(c2nc3c(Br)c(Br)c(Br)c(Br)c3[nH]2)C1 (centres unmarked)	7.41
Brc1c(Br)c(Br)c2[nH]c(N3CCNc4ccccc43)nc2c1Br	7.40

This collection of values is drawn from patent US8604217B2.
